- assay comment: Half life in CD1 mouse at 20 mg/kg, ip measured after 24 hrs by LC/MS/MS method
- Type: ADME, organism-based
- condition context: in vivo
assay endpoint: half-life (min)
Expressed in min, but write only the number.

Query: Consider the molecule O=C(NO)c1ccc(CNC(=O)c2c(F)c(F)c(F)c(F)c2F)cc1 and give its measured half-life.
Reply: 15

----------
- assay comment: Cmax in CD1 mouse at 20 mg/kg, ip measured after 24 hrs by LC/MS/MS method
- Assay type: ADME, organism-based
- Parameters: route intraperitoneal, dose 20 mg/kg, time 24 hrs
- condition context: in vivo
assay endpoint: Cmax (ng/mL)
Numbers only; they are read as ng/mL.

Query: For O=C(NO)c1ccc(CNC(=O)c2c(F)c(F)c(F)c(F)c2F)cc1 , what is its reported Cmax?
Reply: 526
